Provide the recorded EC50 at 96 h for the entries that follow.
experiment: Cytotoxicity against mouse J774.A1 cells assessed as reduction in cell survival measured after 96 hrs by SYBR Green II dye based analysis; assay type: toxicity
One number for each entry, in nM.

Value lookup for EC50 at 96 h; key = COC1=CC(c2ccc(Cc3ccc(OC)cc3)[nH]2)=N/C1=C\NC1CCCCC1.Cl
946

Provide the reported EC50 at 96 h of each entry below, same order.
1. FC(F)(F)Oc1ccc(OC2=CC(c3ccc[nH]3)=N/C2=C\NC2CCCCC2)cc1
2. COC1=CC(c2ccc[nH]2)=N/C1=C\NC1CCN(Cc2ccccc2)CC1

1. 982
2. 625

Provide the reported EC50 at 96 h of each entry below, same order.
1. FC(F)(F)Oc1ccc(OC2=CC(c3ccc[nH]3)=N/C2=C\NC2CCCCCC2)cc1
2. COC1=CC(c2ccc[nH]2)=N/C1=C\Nc1ccccc1
3. COC1=CC(c2ccc[nH]2)=N/C1=C\Nc1cccc(OC(F)(F)F)c1.Cl
4. COC1=CC(c2ccc(Cc3ccc(OC)cc3)[nH]2)=N/C1=C\NC1CCCCCCC1.Cl
5. COC1=CC(c2ccc(-c3ccc(OC)cc3)[nH]2)=N/C1=C\NC1CCCCCC1.Cl

1: 642; 2: 1040; 3: 760; 4: 547; 5: 450

----------
Provide the recorded half-life at 1 µM for the entries that follow.
assay: Metabolic stability in pre-warmed pooled human liver microsomes assessed as half life at 1 uM measured upto 60 mins by LC-MS analysis; type: ADME, Microsome
Answers are plain numbers, in min.

Consider the reported half-life at 1 µM for these molecules:
Value lookup for half-life at 1 µM; key = COC1=CC(c2ccc[nH]2)=N/C1=C\NCC1CCCCCC1.Cl
18.6

Value lookup for half-life at 1 µM; key = Cc1ccc(N/C=C2\N=C(c3ccc[nH]3)C3=C2CCCC3)cc1.Cl
42.1

Value lookup for half-life at 1 µM; key = COC1=CC(c2ccc[nH]2)=N/C1=C\N[C@H]1CC[C@H](C)CC1.Cl
17.3

Let's switch to this molecule now.
Value lookup for half-life at 1 µM; key = COC1=CC(c2ccc[nH]2)=N/C1=C\N[C@H]1CC[C@H](C(F)(F)F)CC1.Cl
13

----------
tested on: HepG2; test: Cytotoxicity against human HepG2 cells assessed as inhibition of cell growth incubated for 48 hrs by MTT assay; assay type: toxicity, cell-based
measurement-type: IC50
The answer should read as a number with its unit following.

Consider the reported IC50 for these compounds:
Return IC50 measured with HepG2 given this compound: C(/NC1CCCCCC1)=C1/N=C(c2ccc[nH]2)C2=C1CCCC2.Cl
6.2 µM

Return IC50 measured with HepG2 given this compound: Cl.Clc1ccc(OC2=CC(c3ccc[nH]3)=N/C2=C\NC23CC4CC(CC(C4)C2)C3)cc1
14.5 µM

Return IC50 measured with HepG2 given this compound: Cl.FC(F)(F)Oc1ccc(C2=CC(c3ccc[nH]3)=N/C2=C\NC23CC4CC(CC(C4)C2)C3)cc1
85.5 µM

Return IC50 measured with HepG2 given this compound: CCCCCCN/C=C1\N=C(c2ccc[nH]2)C=C1OC.Cl
26.7 µM

Return IC50 measured with HepG2 given this compound: CCC1=C(CC)/C(=C/N[C@H]2CC[C@H](C)CC2)N=C1c1ccc[nH]1.Cl
15.9 µM

Return IC50 measured with HepG2 given this compound: Cl.Fc1cc(F)cc(OC2=CC(c3ccc[nH]3)=N/C2=C\NC23CC4CC(CC(C4)C2)C3)c1
59.4 µM

Return IC50 measured with HepG2 given this compound: C(/NC1CCCCC1)=C1/N=C(c2ccc[nH]2)C2=C1CCCC2.Cl
8.21 µM

Return IC50 measured with HepG2 given this compound: CC1=C(C)/C(=C/NC2CCCCCC2)N=C1c1ccc[nH]1.Cl
21.3 µM

Provide the reported IC50 of each entry below, same order.
1. CCc1ccc(C2=N/C(=C\NC3CCCCCC3)C(C)=C2C)[nH]1.Cl
2. COC1=CC(c2ccc[nH]2)=N/C1=C\NCC1CCCCCC1.Cl
3. CCc1c(C)[nH]c(C2=N/C(=C\NC34CC5CC(CC(C5)C3)C4)C(C)=C2C)c1C.Cl
4. COC1=CC(c2ccc[nH]2)=N/C1=C\N[C@H]1CC[C@H](C(F)(F)F)CC1.Cl
5. COC1=CC(c2ccc[nH]2)=N/C1=C\Nc1ccc(Oc2ccc(C)cc2)cc1
6. COC1=CC(c2ccc[nH]2)=N/C1=C\N[C@H]1CC[C@H](C)CC1.Cl

1. 2.99 µM
2. 6.06 µM
3. 21.3 µM
4. 5.12 µM
5. 1.73 µM
6. 3.43 µM

----------
assay: Therapeutic index, ratio of EC50 for mouse J774.A1 cells to EC50 for antileishmanial activity against Leishmania mexicana MNYC/BZ/62/M379 amastigotes expressing red-shifted firefly luciferase from integrated ribosomal (28S) RNA locus infected in mouse J774.A1 cells; assay type: toxicity, cell-based; conditions: read-out: TI
measurement-type: selectivity ratio
One number for each entry.

Value lookup for selectivity ratio; key = COC1=CC(c2ccc(Cc3ccc(OC)cc3)[nH]2)=N/C1=C\NC1CCCC1.Cl
30

Value lookup for selectivity ratio; key = COC1=CC(c2ccc(Cc3ccc(OC)cc3)[nH]2)=N/C1=C\NC1CCCCC1.Cl
42

Provide the reported selectivity ratio of each entry below, same order.
1. Cl.Clc1ccc(OC2=CC(c3ccc[nH]3)=N/C2=C\NC23CC4CC(CC(C4)C2)C3)cc1
2. CCc1ccc(C2=N/C(=C\NC3CCCCCCC3)C(C)=C2C)[nH]1.Cl

1. 15
2. 18

Provide the reported selectivity ratio of each entry below, same order.
1. CC1=C(C)/C(=C/NC2CCCCCC2)N=C1c1ccc(CC(C)C)[nH]1.Cl
2. COC1=CC(c2ccc[nH]2)=N/C1=C\NC1CCN(Cc2ccccc2)CC1
3. FC(F)(F)Oc1ccc(OC2=CC(c3ccc[nH]3)=N/C2=C\NCC2CCCCCC2)cc1
4. CCCCCCN/C=C1\N=C(c2ccc[nH]2)C=C1Oc1ccc(OC(F)(F)F)cc1

[28, 7.9, 4.3, 3.6]

Provide the reported selectivity ratio of each entry below, same order.
1. COC1=CC(c2ccc[nH]2)=N/C1=C\N[C@H]1CC[C@H](C)CC1.Cl
2. CC1=C(C)/C(=C/NCC2CCCCCC2)N=C1c1ccc[nH]1
3. FC(F)(F)Oc1ccc(OC2=CC(c3ccc[nH]3)=N/C2=C\NC2CCCCCCC2)cc1
4. FC(F)(F)Oc1ccc(OC2=CC(c3ccc[nH]3)=N/C2=C\NC2CCCCCC2)cc1
5. COC1=CC(c2ccc(Cc3ccc(OC)cc3)[nH]2)=N/C1=C\NC1CCCCCC1.Cl
6. CC1=C(C)/C(=C/NC2CCCCCC2)N=C1c1ccc[nH]1.Cl
7. COC1=CC(c2ccc[nH]2)=N/C1=C\Nc1cccc(Cl)c1.Cl
8. COC1=CC(c2ccc[nH]2)=N/C1=C\NC1CCCCCC1.Cl

17
17
9.9
4.1
59
16
6.2
17

Provide the reported selectivity ratio of each entry below, same order.
1. Cl.FC(F)(F)Oc1ccc(OC2=CC(c3ccc[nH]3)=N/C2=C\NC23CC4CC(CC(C4)C2)C3)cc1
2. CCc1c[nH]c(C2=N/C(=C\NC3CCCCCC3)C(C)=C2C)c1.Cl
3. COC1=CC(c2ccc[nH]2)=N/C1=C\Nc1cccc(OC(F)(F)F)c1.Cl
4. CCc1ccc(C2=N/C(=C\NC3CCCCCC3)C(C)=C2C)[nH]1.Cl
5. C(/NC1CCCCC1)=C1/N=C(c2ccc[nH]2)C2=C1CCCC2.Cl
6. CC1=C/C(=C\NC23CC4CC(CC(C4)C2)C3)N=C1c1ccc[nH]1.Cl
7. COC1=CC(c2ccc[nH]2)=N/C1=C\N[C@H]1CC[C@H](C(F)(F)F)CC1.Cl
8. COC1=CC(c2ccc[nH]2)=N/C1=C\N[C@H]1CC[C@H](NC(=O)OC(C)(C)C)CC1

8.6
11
14
28
23
24
24
34

----------
Provide the recorded selectivity ratio for the entries that follow.
test: Therapeutic index, ratio of IC50 for human HepG2 cells to EC50 for antileishmanial activity against Leishmania donovani amastigotes expressing red-shifted firefly luciferase from integrated ribosomal (28S) RNA locus infected in mouse J774.A1 cells; assay type: toxicity, cell-based; details: read-out: TI
One number for each entry.

Consider the reported selectivity ratio for these compounds:
Value lookup for selectivity ratio; key = Cl.Fc1cc(F)cc(OC2=CC(c3ccc[nH]3)=N/C2=C\NC23CC4CC(CC(C4)C2)C3)c1
323

Value lookup for selectivity ratio; key = Cl.Clc1ccc(OC2=CC(c3ccc[nH]3)=N/C2=C\NC23CC4CC(CC(C4)C2)C3)cc1
80

Value lookup for selectivity ratio; key = CCC1=C/C(=C\NC23CC4CC(CC(C4)C2)C3)N=C1c1ccc[nH]1
168

Value lookup for selectivity ratio; key = CC1=C/C(=C\NC23CC4CC(CC(C4)C2)C3)N=C1c1ccc[nH]1.Cl
300

Value lookup for selectivity ratio; key = C(/NC1CCCCCC1)=C1/N=C(c2ccc[nH]2)C2=C1CCCC2.Cl
61

Provide the reported selectivity ratio of each entry below, same order.
1. CCc1c(C)[nH]c(C2=N/C(=C\NC34CC5CC(CC(C5)C3)C4)C(C)=C2C)c1C.Cl
2. CC1=C(C)/C(=C/NC2CCCCCC2)N=C1c1ccc[nH]1.Cl
3. Cl.FC(F)(F)Oc1ccc(C2=CC(c3ccc[nH]3)=N/C2=C\NC23CC4CC(CC(C4)C2)C3)cc1
4. COC1=CC(c2ccc[nH]2)=N/C1=C\NC1CCCCCC1.Cl

[263, 268, 215, 73]
